Measured values drawn from patent EP0409410B1 for this set.

# System: red blood cells
# measurement description: Red blood cell fragility test (membrane stabilization, protection from osmolysis)
# Type: cell-based, Rats
# protocol conditions: red blood cell fragility protective index value: linear regression slope, percentage protection against osmolysis per µM protecting agent; rat blood, absorbance at 656 nm
If the reported RBC-PIV equals or exceeds 0.4 %/µM, assign met. If not, assign not met.

[[record]]
compound = "c1ccc2c(c1)C[C@H]1Nc3ccccc3[C@@H]21 (relative stereo)"
discrete_label = "not met"

[[record]]
compound = "Cc1c(C)c2c(c(C)c1O)CCC(C)(CCCC(C)CCCC(C)CCCC(C)C)O2 (stereo not drawn) [α-Tocopherol (Vitamin E), α-Tocopherol, reference compound]"
discrete_label = "not met"

[[record]]
compound = "CN1c2ccccc2[C@H]2Cc3ccccc3[C@H]21 (relative stereo)"
discrete_label = "met"

[[record]]
compound = "COc1ccc2c(c1)[C@H]1Cc3ccccc3[C@H]1N2 (relative stereo)"
discrete_label = "not met"

